Each item that follows carries a reported viability, T/C.
- System: 782815-120-R-J1-PDC complex spheroid viability
- MEASUREMENT_PROTOCOL: Anticancer human tumor 782815-120-R-J1-PDC patient-derived colon adenocarcinoma cell line growth inhibition [RAS]
- MEASUREMENT_CONDITIONS: second compound 0.000949 µM; first compound 0.0316 µM; active compounds read low

COMPOUND	READING
CCC(CC)c1cc(NC2CCC(N)C2)n2nccc2n1 (centres undefined) + CCn1c(-c2cc(N3CCN(C)CC3)cnc2C(C)OC)c2c3cc(ccc31)-c1csc(n1)CC(NC(=O)C1CC1C)C(=O)N1CCCC(N1)C(=O)OCC(C)(C)C2	69.7%

Give the measured viability, T/C for CC1(O)CCCC1n1c(=O)c(C(F)F)cc2cnc(NC3CCN(S(C)(=O)=O)CC3)nc21 (centres undefined) + CCn1c(-c2cccnc2C(C)OC)c2c3cc(ccc31)N1CCOC(CC(NC(=O)C(C(C)C)N(C)C(=O)C3(F)CCN(C(=O)C#CC(C)(C)N(C)C)CC3)C(=O)N3CCCC(N3)C(=O)OCC(C)(C)C2)C1
61.7%

Give the measured viability, T/C for C=CC(=O)Nc1cc(Nc2nccc(-c3cn(C)c4ccccc34)n2)c(OC)cc1N(C)CCN(C)C + CCn1c(-c2cc(N3CCN(C)CC3)cnc2C(C)OC)c2c3cc(ccc31)-c1csc(n1)CC(NC(=O)C1CC1C)C(=O)N1CCCC(N1)C(=O)OCC(C)(C)C2
79%

Give the measured viability, T/C for CC(Nc1ccc2c(c1)OCCn1cc(N3C(=O)OCC3C(F)F)nc1-2)C(N)=O (centres undefined) + CCn1c(-c2cccnc2C(C)OC)c2c3cc(ccc31)N1CCOC(CC(NC(=O)C(C(C)C)N(C)C(=O)C3(F)CCN(C(=O)C#CC(C)(C)N(C)C)CC3)C(=O)N3CCCC(N3)C(=O)OCC(C)(C)C2)C1
93.3%

----------
Each item that follows carries a reported viability, T/C.
- System: 782815-120-R-J1-PDC complex spheroid viability
- MEASUREMENT_PROTOCOL: Anticancer human tumor 782815-120-R-J1-PDC cell line growth inhibition [RAS];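 also: spheroids exposed to compounds for 7 days before reading; 100% = DMSO vehicle control viability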
- MEASUREMENT_CONDITIONS: second compound 0.316 µM; first compound 0.0949 µM; active compounds read low
Your answer is read as %, so omit the unit and give the number.

Give the measured viability, T/C for CC1(C)CCC(Nc2ncc(C(F)(F)F)c(-c3c[nH]c4c(P(C)(C)=O)c(C#N)ccc34)n2)CN1 (centres undefined) + C#Cc1c(F)ccc2cc(O)cc(-c3ncc4c(N5CC6CCC(C5)N6)nc(OCC56CCCN5CC(F)C6)nc4c3F)c12
61.8

Give the measured viability, T/C for CCc1c2c(nc3ccc(O)cc13)-c1cc3c(c(=O)n1C2)COC(=O)[C@]3(O)CC + C#Cc1c(F)ccc2cc(O)cc(-c3ncc4c(N5CC6CCC(C5)N6)nc(OCC56CCCN5CC(F)C6)nc4c3F)c12
3.58

Give the measured viability, T/C for CCc1c2c(nc3ccc(O)cc13)-c1cc3c(c(=O)n1C2)COC(=O)[C@]3(O)CC + C=CC(=O)N1CCN(c2nc(OCC3CCCN3C)nc3c(F)c(-c4nc(N)cc(C)c4C(F)(F)F)c(Cl)cc23)C(C)C1
3.9

Give the measured viability, T/C for CC1(C)CCC(Nc2ncc(C(F)(F)F)c(-c3c[nH]c4c(P(C)(C)=O)c(C#N)ccc34)n2)CN1 (centres undefined) + C=CC(=O)N1CCN(c2nc(OCC3CCCN3C)nc3c(F)c(-c4nc(N)cc(C)c4C(F)(F)F)c(Cl)cc23)C(C)C1
77.3
